pKi: −log10 of the molar value.
For reference, pKi measured on Carbonic anhydrase 9 (Homo sapiens, UniProt Q16790):
MEASURED QUANTITY: pKi

Previously resolved entries follow.
compound=Cc1cc(NS(=O)(=O)c2ccc(NCc3coc4ccccc4c3=O)cc2)no1 value_measured=7.49
compound="CCOC1Oc2ccccc2C(=O)/C1=C/Nc1ccc(S(=O)(=O)Nc2ccccn2)cc1 (configuration not stated)" value_measured=7.68
compound="CCOC1Oc2ccccc2C(=O)/C1=C/Nc1ccc(S(=O)(=O)Nc2nccs2)cc1 (configuration not stated)" value_measured=7.70

P: CCOC1Oc2ccccc2C(=O)/C1=C/Nc1ccc(S(=O)(=O)Nc2nc(C)cc(C)n2)cc1 (configuration not stated)
Q: NS(=O)(=O)c1ccc(N2C(=O)/C(=C/c3coc4ccccc4c3=O)N=C2c2ccccc2)cc1
Qu. Lab note: check whether P or Q shows the higher recorded pKi. Write down the label attached to your selection.
Ans. Q
(Q: 7.64, P: 7.42)
